tested.system: human recombinant serotonin (5-Hydroxytryptamine) 5-HT6 receptor (Homo sapiens, UniProt P50406)
Construct: expressed in transfected cells; host or cells: HeLa
Sequence (P50406 whole entry): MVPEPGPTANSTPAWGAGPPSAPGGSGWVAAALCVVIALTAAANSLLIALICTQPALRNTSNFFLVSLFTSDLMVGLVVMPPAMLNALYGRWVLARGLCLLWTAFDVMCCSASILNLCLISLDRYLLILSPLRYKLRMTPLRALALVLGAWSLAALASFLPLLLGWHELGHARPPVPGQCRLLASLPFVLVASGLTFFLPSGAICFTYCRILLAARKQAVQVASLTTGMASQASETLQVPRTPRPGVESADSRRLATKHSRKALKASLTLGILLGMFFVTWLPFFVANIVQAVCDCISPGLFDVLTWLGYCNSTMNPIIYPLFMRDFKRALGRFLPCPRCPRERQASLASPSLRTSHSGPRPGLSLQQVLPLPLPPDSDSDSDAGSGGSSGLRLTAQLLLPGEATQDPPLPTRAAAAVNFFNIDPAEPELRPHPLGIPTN
protocol: Serotonin 5-HT6 radioligand binding ([3H]LSD)
test.context: compound at 0.1 μM; read-out: Inhibition of ligand binding, Serotonin 5-HT6 (percent inhibition of specific binding)
Text: Receptor proteins were filtered and washed, the filters were then counted to determine [3H]LSD specifically bound.
# key: entry, value: inhibition at 0.1 µM
# unit: % | format: bare number

Study these solved cases before continuing.
{"smiles.code": "Cc1ccc2c(c1)c1c(n2-c2ccccc2-c2cnc(N(C)C)nc2)CCN(C)C1", "inhibition at 0.1 µM [%]": 20}
{"smiles.code": "Cc1ccc2c(c1)c1c(n2-c2ccccc2N(C)C)CCN(C)C1", "inhibition at 0.1 µM [%]": 28}
{"smiles.code": "Cc1ccc2c(c1)c1c(n2-c2cscc2-c2ccccc2)CCN(C)C1", "inhibition at 0.1 µM [%]": 62}
{"smiles.code": "Cc1ccc2c(c1)c1c(n2-c2cscc2-c2ccnn2C)CCN(C)C1", "inhibition at 0.1 µM [%]": 14}
{"smiles.code": "Cc1ccc2c(c1)c1c(n2-c2ccccc2-c2ccc(F)cc2)CCN(C)C1", "inhibition at 0.1 µM [%]": 57}
{"smiles.code": "Cc1ccc2c(c1)c1c(n2-c2ccc(-c3ccc(F)cc3)cn2)CCN(C)C1", "inhibition at 0.1 µM [%]": 41}

(Q) Hello, please tell me recorded inhibition at 0.1 µM for this one: CN1CCc2c(c3cc(Cl)ccc3n2-c2cscc2-c2ccncc2)C1
(A) 45

(Q) Hello, please tell me recorded inhibition at 0.1 µM for this one: Cc1ccc2c(c1)c1c(n2-c2cccc(-c3ccc(O)nc3)c2)CCN(C)C1
(A) 17

(Q) Hello, please tell me recorded inhibition at 0.1 µM for this one: Cc1ccc2c(c1)c1c(n2-c2cscc2-c2cnn(C)c2)CCN(C)C1
(A) 33

(Q) Hello, please tell me recorded inhibition at 0.1 µM for this one: Cc1ccc2c(c1)c1c(n2-c2cccc(-c3ccc4[nH]cnc4c3)c2)CCN(C)C1
(A) 25

(Q) Hello, please tell me recorded inhibition at 0.1 µM for this one: Cc1ccc2c(c1)c1c(n2-c2ccc(-c3ccc4c(ccn4C)c3)cn2)CCN(C)C1
(A) 10

(Q) Hello, please tell me recorded inhibition at 0.1 µM for this one: CC(=O)Nc1ccc(-c2cccc(-n3c4c(c5cc(C)ccc53)CN(C)CC4)c2)cn1
(A) 6

(Q) Hello, please tell me recorded inhibition at 0.1 µM for this one: Cc1ccc2c(c1)c1c(n2-c2ccc(C)nc2)CCN(C)C1
(A) 20

* * *

tested.system: human recombinant adrenergic α2C receptor (Homo sapiens, UniProt P18825)
Construct: expressed in transfected cells; host or cells: insect Sf9 cells
Sequence (P18825 whole entry): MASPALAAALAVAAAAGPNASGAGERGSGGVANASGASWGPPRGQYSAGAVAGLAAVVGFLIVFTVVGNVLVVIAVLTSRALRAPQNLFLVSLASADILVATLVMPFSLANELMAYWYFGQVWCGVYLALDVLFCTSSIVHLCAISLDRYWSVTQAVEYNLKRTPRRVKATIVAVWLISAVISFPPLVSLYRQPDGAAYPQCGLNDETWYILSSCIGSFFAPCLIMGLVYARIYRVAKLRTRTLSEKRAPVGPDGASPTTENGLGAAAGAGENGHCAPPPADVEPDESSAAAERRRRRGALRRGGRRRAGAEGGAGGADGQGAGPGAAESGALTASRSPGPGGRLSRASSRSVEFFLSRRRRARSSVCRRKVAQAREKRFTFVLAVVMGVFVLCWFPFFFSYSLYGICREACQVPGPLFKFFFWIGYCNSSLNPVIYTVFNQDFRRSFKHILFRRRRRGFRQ
protocol: Adrenergic α2C radioligand binding ([3H]MK-912)
test.context: read-out: Adrenergic (0.1 μM) a2C, percent inhibition of specific binding; compound at 0.1 μM; 1 nM [3H]MK-912
test.readout: inhibition at 0.1 µM (%)
# unit: % | format: bare number

Study these solved cases before continuing.
{"molecule": "Cc1ccc2c(c1)c1c(n2-c2ccccc2-c2cccc3[nH]ncc23)CCN(C)C1 [Compound No. 105]", "test.readout": "inhibition at 0.1 µM", "value.observed": 45}
{"molecule": "CNC(=O)c1ccc(-c2ccccc2-n2c3c(c4cc(C)ccc42)CN(C)CC3)cc1 [Compound No. 72]", "test.readout": "inhibition at 0.1 µM", "value.observed": 1}
{"molecule": "Cc1ccc2c(c1)c1c(n2-c2cscc2-c2cnc(N(C)C)nc2)CCN(C)C1 [Compound 40]", "test.readout": "inhibition at 0.1 µM", "value.observed": -17}

# context switch: different molecule, same inhibition at 0.1 µM
(Q) Hello, please tell me recorded inhibition at 0.1 µM for this one: Cc1ccc2c(c1)c1c(n2-c2ccccc2-c2ccc3c(ccn3C)c2)CCN(C)C1 [Compound No. 85]
(A) 46

* * *

tested.system: human recombinant adrenergic α2C receptor (Homo sapiens, UniProt P18825)
Construct: expressed in transfected cells; host or cells: insect Sf9 cells
protocol: Adrenergic α2C radioligand binding ([3H]MK-912)
test.context: read-out: Adrenergic (0.1 μM) a2C, percent inhibition of specific binding; compound at 0.1 μM; 1 nM [3H]MK-912
test.readout: inhibition at 0.1 µM (%)
# unit: % | format: bare number

Study these solved cases before continuing.
{"smiles.code": "Cc1ccc2c(c1)c1c(n2-c2ccccc2-c2ccc(O)nc2)CCN(C)C1", "value.observed": -6}
{"smiles.code": "CC(=O)Nc1ccc(-c2ccccc2-n2c3c(c4cc(C)ccc42)CN(C)CC3)cn1", "value.observed": -5}
{"smiles.code": "Cc1ccc2c(c1)c1c(n2-c2ccc(-c3cccc4[nH]ncc34)cn2)CCN(C)C1", "value.observed": 1}
{"smiles.code": "CNC(=O)c1cccc(-c2cscc2-n2c3c(c4cc(C)ccc42)CN(C)CC3)c1", "value.observed": 3}
{"smiles.code": "Cc1csc(-c2cccc(-n3c4c(c5cc(C)ccc53)CN(C)CC4)c2)c1", "value.observed": 10}

(Q) Hello, please tell me recorded inhibition at 0.1 µM for this one: CC(=O)Nc1ccc(-c2cscc2-n2c3c(c4cc(C)ccc42)CN(C)CC3)cn1
(A) 2

(Q) Hello, please tell me recorded inhibition at 0.1 µM for this one: Cc1ccc2c(c1)c1c(n2-c2ccc3nc(C)ccc3c2)CCN(C)C1
(A) -1

(Q) Hello, please tell me recorded inhibition at 0.1 µM for this one: Cc1ccc2c(c1)c1c(n2-c2ccccc2-c2ccc(F)cc2)CCN(C)C1
(A) 67

(Q) Hello, please tell me recorded inhibition at 0.1 µM for this one: CNC(=O)c1cc(-n2c3c(c4cc(C)ccc42)CN(C)CC3)cs1
(A) 3

(Q) Hello, please tell me recorded inhibition at 0.1 µM for this one: Cc1ccc2c(c1)c1c(n2-c2ccc(-c3sccc3C)cn2)CCN(C)C1
(A) 4

(Q) Hello, please tell me recorded inhibition at 0.1 µM for this one: Cc1ccc2c(c1)c1c(n2-c2ccccc2-c2ccc(C)s2)CCN(C)C1
(A) 41

(Q) Hello, please tell me recorded inhibition at 0.1 µM for this one: Cc1ccc2c(c1)c1c(n2-c2cccc(-c3ccc(O)nc3)c2)CCN(C)C1
(A) 2

(Q) Hello, please tell me recorded inhibition at 0.1 µM for this one: Cc1ccc2c(c1)c1c(n2-c2cccc(-c3ccc(S(C)(=O)=O)cc3)c2)CCN(C)C1
(A) 13

(Q) Hello, please tell me recorded inhibition at 0.1 µM for this one: COc1ccc(-c2cscc2-n2c3c(c4cc(C)ccc42)CN(C)CC3)cc1
(A) 72

* * *

# key: entry, value: inhibition at 1 µM
tested.system: human recombinant dopamine D2L receptor (Homo sapiens, UniProt P14416)
Construct: expressed in transfected cells; host or cells: CHO
Sequence (P14416 whole entry): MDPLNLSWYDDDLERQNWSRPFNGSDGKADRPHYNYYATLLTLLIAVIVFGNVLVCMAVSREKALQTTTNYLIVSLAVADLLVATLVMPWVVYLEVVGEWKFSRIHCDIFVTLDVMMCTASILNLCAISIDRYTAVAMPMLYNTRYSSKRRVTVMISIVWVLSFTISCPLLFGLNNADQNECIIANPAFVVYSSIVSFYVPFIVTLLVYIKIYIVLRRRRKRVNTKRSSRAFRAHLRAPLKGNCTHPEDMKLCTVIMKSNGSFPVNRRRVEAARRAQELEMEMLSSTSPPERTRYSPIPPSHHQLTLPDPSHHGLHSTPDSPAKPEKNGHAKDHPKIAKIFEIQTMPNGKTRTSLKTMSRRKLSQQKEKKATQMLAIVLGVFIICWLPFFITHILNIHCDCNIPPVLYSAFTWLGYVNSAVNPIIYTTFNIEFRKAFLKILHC
protocol: Dopamine D2L radioligand binding ([3H]Spiperone)
test.context: read-out: Dopamine D2L (1 μM), percent inhibition of specific binding; compound at 1 μM; 0.16 nM [3H]Spiperone
# unit: % | format: bare number

(Q) Hello, please tell me recorded inhibition at 1 µM for this one: Cc1ccc2c(c1)c1c(n2-c2cscc2-c2ccc(O)nc2)CCN(C)C1 [Compound 49]
(A) 1

(Q) Hello, please tell me recorded inhibition at 1 µM for this one: Cc1ccc2c(c1)c1c(n2-c2cccs2)CCN(C)C1 [Compound 16]
(A) 49

(Q) Hello, please tell me recorded inhibition at 1 µM for this one: Cc1cc(C)c2c(c1)c1c(n2-c2ccc3ncccc3c2)CCN(C)C1 [Compound 48]
(A) 41

* * *

tested.system: human recombinant dopamine D2L receptor (Homo sapiens, UniProt P14416)
Construct: expressed in transfected cells; host or cells: CHO
protocol: Dopamine D2L radioligand binding ([3H]Spiperone)
test.context: read-out: Dopamine D2L (1 μM), percent inhibition of specific binding; compound at 1 μM; 0.16 nM [3H]Spiperone
Classification field: TRUE = inhibition at 1 µM at or over 20%; FALSE = inhibition at 1 µM under 20%.

{"compound": "Cc1ccc2c(c1)c1c(n2-c2ccccc2-c2ccc(O)nc2)CCN(C)C1 [Compound No. 80]", "tested.system": "human recombinant dopamine D2L receptor (Homo sapiens, UniProt P14416)", "label.value": "FALSE"}
{"compound": "Cc1cc(C)c2c(c1)c1c(n2-c2cccc3ncccc23)CCN(C)C1 [Compound 47]", "tested.system": "human recombinant dopamine D2L receptor (Homo sapiens, UniProt P14416)", "label.value": "FALSE"}
{"compound": "Cc1ccc2c(c1)c1c(n2-c2cccc(-c3ccc(C)s3)c2)CCN(C)C1 [Compound No. 64]", "tested.system": "human recombinant dopamine D2L receptor (Homo sapiens, UniProt P14416)", "label.value": "TRUE"}
{"compound": "Cc1ccc2c(c1)c1c(n2-c2cscc2-c2ccc(C)s2)CCN(C)C1 [Compound No. 79]", "tested.system": "human recombinant dopamine D2L receptor (Homo sapiens, UniProt P14416)", "label.value": "TRUE"}
{"compound": "Cc1ccc2c(c1)c1c(n2-c2ccccc2-c2ccncc2)CCN(C)C1 [Compound 5]", "tested.system": "human recombinant dopamine D2L receptor (Homo sapiens, UniProt P14416)", "label.value": "FALSE"}
{"compound": "Cc1ccc2c(c1)c1c(n2-c2cscn2)CCN(C)C1 [Compound 19]", "tested.system": "human recombinant dopamine D2L receptor (Homo sapiens, UniProt P14416)", "label.value": "FALSE"}
{"compound": "COc1ccc(-c2cscc2-n2c3c(c4cc(C)ccc42)CN(C)CC3)cc1 [Compound 37]", "tested.system": "human recombinant dopamine D2L receptor (Homo sapiens, UniProt P14416)", "label.value": "FALSE"}
{"compound": "Cc1ccc2c(c1)c1c(n2-c2cscc2-c2ccc3c(ccn3C)c2)CCN(C)C1 [Compound 33]", "tested.system": "human recombinant dopamine D2L receptor (Homo sapiens, UniProt P14416)", "label.value": "FALSE"}

Proceed to the following item.
(Q) Answer whether inhibition at 1 µM of Cc1cc(C)c2c(c1)c1c(n2-c2cccc(-c3ccncc3)c2)CCN(C)C1 [Compound 57] is greater than or equal to 20%.
(A) TRUE
